# test_name: self-splicing fitness, log relative to wild type (ln ratio); higher = more splicing; Tetrahymena group I intron in knt gene, E. coli kanamycin selection, DiMSum; sequences stand for … in CUCUCU…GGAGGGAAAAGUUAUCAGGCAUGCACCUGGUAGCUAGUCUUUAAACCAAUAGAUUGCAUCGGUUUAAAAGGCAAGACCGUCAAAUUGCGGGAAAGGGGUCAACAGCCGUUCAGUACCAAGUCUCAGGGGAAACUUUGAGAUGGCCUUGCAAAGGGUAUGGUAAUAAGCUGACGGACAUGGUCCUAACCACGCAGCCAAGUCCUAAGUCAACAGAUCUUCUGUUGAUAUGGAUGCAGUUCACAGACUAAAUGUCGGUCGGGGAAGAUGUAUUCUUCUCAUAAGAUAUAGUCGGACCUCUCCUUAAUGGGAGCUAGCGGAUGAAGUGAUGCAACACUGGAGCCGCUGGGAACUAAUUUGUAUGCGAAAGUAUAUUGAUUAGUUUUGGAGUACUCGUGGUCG;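 note: selection with 25 µg/mL kanamycin versus none on LB agar overnight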
# measurement_setup: 30 °C
Mark TRUE for reported self-splicing fitness (ln) of -2 or greater; mark FALSE for anything smaller.

Some solved entries appear below for comparison.
AGUUAGCAAUAUUACGCUGG :: FALSE
UCCCAGCAAUAUUACGCUCG :: FALSE
GGUUAGCAAUAUUACGGUUG :: FALSE
GUUGAGCAAUAUUACGUUAU :: FALSE
UGCAAGCAAUAUUACGAGCU :: TRUE
UAGGAGCAAUAUUACGUAUA :: FALSE

Inquiry: Identify whether the reported self-splicing fitness (ln) of the following sequence is -2 or greater: `GCGCAGCAAUAUUACGGUCC`
Reply text: TRUE

Inquiry: Answer whether self-splicing fitness (ln) of `CAUUAGCAAUAUUACGAGCC` is greater than or equal to -2.
Reply text: FALSE

Inquiry: State whether the measured self-splicing fitness (ln) reaches -2, counting equality as reaching it, for `UCAUAGCAAUAUUACGAGCU`
Reply text: FALSE

Inquiry: API: above_or_equal(metric=self-splicing fitness (ln), cutoff=-2) for item `GAUGAGCAAUAUUACGGCUG`
Reply text: TRUE

Inquiry: Please check the record `CUCGAGCAAUAUUACGUGUU` and state if its self-splicing fitness (ln) is at or above -2.
Reply text: FALSE

Inquiry: Given the entry `CGCAAGCAAUAUUACGUUGC` , answer whether its self-splicing fitness (ln) meets or surpasses -2.
Reply text: FALSE

Inquiry: Reported self-splicing fitness (ln) reaches at least -2 for `UUGUAGCAAUAUUACGUCCA` ?
Reply text: TRUE

====

# test_name: self-splicing fitness, log relative to wild type (ln ratio); higher = more splicing; Tetrahymena group I intron in knt gene, E. coli kanamycin selection, DiMSum; sequences stand for … in CUCUCU…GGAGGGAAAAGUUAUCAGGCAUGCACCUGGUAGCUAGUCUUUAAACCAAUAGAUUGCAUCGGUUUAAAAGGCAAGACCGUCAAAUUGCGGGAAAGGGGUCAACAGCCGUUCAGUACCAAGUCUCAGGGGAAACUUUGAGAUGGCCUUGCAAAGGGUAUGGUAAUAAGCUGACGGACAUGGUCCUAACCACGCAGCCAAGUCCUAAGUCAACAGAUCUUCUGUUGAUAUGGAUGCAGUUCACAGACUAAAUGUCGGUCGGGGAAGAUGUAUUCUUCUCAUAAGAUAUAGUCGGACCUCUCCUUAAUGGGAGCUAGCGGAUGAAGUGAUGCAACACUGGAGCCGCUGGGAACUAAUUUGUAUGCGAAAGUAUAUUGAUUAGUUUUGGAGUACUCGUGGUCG
# measurement_setup: 37 °C
Decision: self-splicing fitness (ln) compared against -1; not below it gives criterion met, below it gives criterion not met.

See these solved cases before continuing.
CCAUAGCAAUAUUACGAGAU :: criterion not met
AGGAAGCAAUAUUACGAUAG :: criterion not met
AAGAAGCAAUAUUACGAUAU :: criterion met
UAACAGCAAUAUUACGUCAG :: criterion met
AUUCAGCAAUAUUACGAGCA :: criterion met
UGAAAGCAAUAUUACGUUAC :: criterion not met
CACAAGCAAUAUUACGUCCA :: criterion not met
GUAUAGCAAUAUUACGUCCG :: criterion not met
UACGAGCAAUAUUACGGGGC :: criterion not met
UUAUAGCAAUAUUACGGCUC :: criterion met

Inquiry: In plain terms: is recorded self-splicing fitness (ln) at least -1 for `CGAUAGCAAUAUUACGUCUA` ?
Reply text: criterion met

Inquiry: Textbook exercise: given the entry `CAUUAGCAAUAUUACGGGCG` , state whether its self-splicing fitness (ln) is greater than or equal to -1.
Reply text: criterion met

Inquiry: Quick check: does `GUCGAGCAAUAUUACGUUCA` have self-splicing fitness (ln) greater than or equal to -1?
Reply text: criterion met

Inquiry: Quick check, self-splicing fitness (ln) >= -1? `ACGCAGCAAUAUUACGUUUC`
Reply text: criterion not met

Inquiry: Check this sequence for self-splicing fitness (ln) at or above -1: `GUAUAGCAAUAUUACGAAAA`
Reply text: criterion not met

Inquiry: Tell me whether self-splicing fitness (ln) is at least -1 here: `UCCUAGCAAUAUUACGGGCC`
Reply text: criterion not met

Inquiry: Does the reported self-splicing fitness (ln) for `ACAGAGCAAUAUUACGAGAU` fall at or above the -1 mark?
Reply text: criterion not met

Inquiry: Confirm if self-splicing fitness (ln) reported for the sequence `GCCCAGCAAUAUUACGGCAA` is -1 or above.
Reply text: criterion met

Inquiry: In plain terms: is recorded self-splicing fitness (ln) at least -1 for `AGUCAGCAAUAUUACGUUAA` ?
Reply text: criterion not met

Inquiry: Hello, I need to know if `CGCCAGCAAUAUUACGGUUC` has measured self-splicing fitness (ln) not below -1. Thanks!
Reply text: criterion not met

Inquiry: Assess whether reported self-splicing fitness (ln) for `AUAAAGCAAUAUUACGGGUA` sits at -1 or higher.
Reply text: criterion not met

Inquiry: Is self-splicing fitness (ln) for `UGAAAGCAAUAUUACGAGGC` at or above -1?
Reply text: criterion not met

Inquiry: Answer whether self-splicing fitness (ln) of `CGGAAGCAAUAUUACGUAGA` is greater than or equal to -1.
Reply text: criterion not met

Inquiry: Check if self-splicing fitness (ln) >= -1 (inclusive). Item: `CACAAGCAAUAUUACGAGGA`
Reply text: criterion not met

Inquiry: Kindly determine if self-splicing fitness (ln) recorded for `GUCUAGCAAUAUUACGGCCC` is above or exactly -1.
Reply text: criterion met

Inquiry: hey, is self-splicing fitness (ln) for this one >= -1? `AAGAAGCAAUAUUACGGAAA`
Reply text: criterion not met

Inquiry: Dear colleague, could you confirm whether `UAGCAGCAAUAUUACGAAAA` has self-splicing fitness (ln) at or above -1?
Reply text: criterion not met

Inquiry: Answer whether self-splicing fitness (ln) of `AGGUAGCAAUAUUACGUUGG` is greater than or equal to -1.
Reply text: criterion not met
